B1: CPEB3 Ribozyme (parent)
chain: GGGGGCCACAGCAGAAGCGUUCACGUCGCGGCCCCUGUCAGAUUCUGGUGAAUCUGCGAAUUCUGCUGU

Variants of: B1
Test: self-cleavage, relative activity (ratio to wild type); higher = more cleavage; co-transcriptional
So I've got a bunch of variants here, and I need their self-cleavage values.
One number for each entry.

GGGGGCCACUGCAGAAGCGUUCACGUCGCGGCCCCUGUCAGAUUCUGGUGAAUCUGCGAAUUCUGUUGU [A10U C66U]
1.01

# map each variant to its self-cleavage
1. GGGGGCCACAGCAGAAGCGUUCACGUCGCGGCCCCUGUCAGAUUCUGGUGAAUCUGCGCAUUCUGCCGU [A59C U67C]
2. GGGGGCCACAGCAGAAGCGUUCACGUCGCGGCCCCUGUCAGAUUCCGGUGAAUCUGCGUAUUCUGCUGU [U46C A59U]
3. GGGGGCCACAGCGGAAGCGUUCACGUCGCGGCCCCUGUCAGAUUCUGGUGAAACUGCGAAUUCUGCUGU [A13G U53A]
4. GGGGGCCACAGCAGAAGCGUUAACGUCGCGGCCCCUGUCAGAUUCUGGUGAAUCUCCGAAUUCUGCUGU [C22A G56C]
5. GGGGGCCACAGCAGAAUCGUUCACGUCGCGGCCCCUGUCAGAUUCUGGUGAAUCUGCGACUUCUGCUGU [G17U A60C]
6. GGGGGCCACAGCAGAAGCGUUCACGUCGCGGCCCUUGUCAGAUUCUGGUGAAACUGCGAAUUCUGCUGU [C35U U53A]

1. 0.806
2. 0.847
3. 0.87
4. 0.173
5. 0.185
6. 0.833

# map each variant to its self-cleavage
1. GGCGGCCACAGCAGAAGCGUUCACGUCGCGGCCCCUGACAGAUUCUGGUGAAUCUGCGAAUUCUGCUGU [G3C U38A]
2. GGGGGCCACAGCAGAAGCGUUCACGUCGCGGCCCCUGUCAGAUUCUGGUGAAUCUGCUAUUUCUGCUGU [G58U A60U]
3. GGGGGCCACAGCAGAAGCGUUCACGUCGCGGCCCCUGUCAGAUUCUGGUUAAUCUGAGAAUUCUGCUGU [G50U C57A]
4. GGGGGCCACAGCAGAAGCGUUCACUUCGCGGCCCCUGUCAGAUUCUGGUGAAUCUGCGAAUUCUGCGGU [G25U U67G]
5. GGGGGCCACAGCCGAAGCGUUCACGUCGCGGCCCCUGUCAGAUUCUGGUGAAUCUGCAAAUUCUGCUGU [A13C G58A]

1: 0.1; 2: 0.331; 3: 0.355; 4: 0.237; 5: 0.754

# map each variant to its self-cleavage
1. GGGGGCCACAGCAGAAGCGUUCACGUCGCGCCCCCUGUCAGAUUCGGGUGAAUCUGCGAAUUCUGCUGU [G31C U46G]
2. GGGGGCCACAGCAGAAGCGUUCACGUCGCGGCCCCUGUCAGAAUCUGGUGAAUCUGCGAAUUCUGCCGU [U43A U67C]
3. GGGGGCCACAGCAGAGGCGUUCACGUCGCGGUCCCUGUCAGAUUCUGGUGAAUCUGCGAAUUCUGCUGU [A16G C32U]
4. GGGGGCUACAGCAGAAGCGUUCACGUCGCGGCCCCUGUCAGAUUCUGGUGAAUCUGCGAAUGCUGCUGU [C7U U62G]
5. GGGGGCAACAGCAGAAGCGAUCACGUCGCGGCCCCUGUCAGAUUCUGGUGAAUCUGCGAAUUCUGCUGU [C7A U20A]
6. UGGGGCCACAGCAGAAGCAUUCACGUCGCGGCCCCUGUCAGAUUCUGGUGAAUCUGCGAAUUCUGCUGU [G1U G19A]

[0.205, 0.895, 0.941, 0.595, 0.0917, 0.0502]
